The measured values listed here are drawn from patent US20100022491A1.

Target: recombinant human α1D receptor (Homo sapiens, UniProt P25100)
Construct: expressed in transfected cells; host or cells: HEK293
Sequence (P25100 1-572): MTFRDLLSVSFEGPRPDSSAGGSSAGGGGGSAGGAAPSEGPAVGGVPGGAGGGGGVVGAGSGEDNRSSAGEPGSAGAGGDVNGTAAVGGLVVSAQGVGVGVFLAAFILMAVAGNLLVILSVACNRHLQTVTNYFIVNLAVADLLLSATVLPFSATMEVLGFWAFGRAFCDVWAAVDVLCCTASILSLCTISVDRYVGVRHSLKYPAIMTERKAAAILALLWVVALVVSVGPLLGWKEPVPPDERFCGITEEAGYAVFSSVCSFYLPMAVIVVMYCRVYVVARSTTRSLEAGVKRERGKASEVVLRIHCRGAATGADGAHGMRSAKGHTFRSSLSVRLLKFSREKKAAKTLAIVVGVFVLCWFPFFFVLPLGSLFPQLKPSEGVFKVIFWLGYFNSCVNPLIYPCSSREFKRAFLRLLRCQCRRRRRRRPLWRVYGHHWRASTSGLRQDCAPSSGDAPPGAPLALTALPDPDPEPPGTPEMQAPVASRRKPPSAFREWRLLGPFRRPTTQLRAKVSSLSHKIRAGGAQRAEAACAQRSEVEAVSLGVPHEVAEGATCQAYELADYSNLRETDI
Assay: Adrenergic α1D selectivity binding assay ([3H]-prazosin)
Conditions: inhibition of [3H]-prazosin (0.3 nM) binding, HEK293 membranes; read-out: α1 bind pIC50 (converted)
Description: Membranes were prepared from human embryonic kidney 293 (HEK293) cells expressing recombinant human α1D receptor. […] Assays were performed in U-bottomed 96-well polypropylene plates. […] Five washes with 250 μL wash buffer (50 mM HEPES, 1 mM EDTA, pH 7.4) were performed at 4° C. to remove unbound radioactivity. […] The plates were sealed (TopSeal A) and filter-bound radioactivity was measured with a scintillation counter (TopCount, Packard BioScience) using a 3-minute counting protocol. […]
Where a name gives a salt, the structure may show the parent alone.
Kindly supply the reported log10 of IC50 values for the records listed here.
log10 IC50, µM

Known log10 of IC50 results, listed for orientation:
1. O=C(CCNC[C@@H](O)c1ccccc1)N(CCNCCc1ccc(O)c2[nH]c(=O)sc12)C1CCCCC1 [Example 74, bis-trifluoroacetic acid salt]    -0.60
2. CCCC(CCC)N(CCNCCc1ccc(O)c2[nH]c(=O)sc12)C(=O)CCNCCc1ccc(F)cc1 [Example 64, bis-trifluoroacetic acid salt]    -1.10
3. Cc1cccc(CCNCCC(=O)N(CCNCCc2ccc(O)c3[nH]c(=O)sc23)C2CCCCC2)c1 [Example 14, bis-trifluoroacetic acid salt]    -0.80
4. O=C(CCNCCc1ccc(Cl)s1)N(CCNCCc1ccc(O)c2[nH]c(=O)sc12)C1CCCCC1 [Example 72, bis-trifluoroacetic acid salt]    -0.40
5. O=C(CCNCCc1ccccc1)N(CCNCCc1ccc(O)c2[nH]c(=O)sc12)C1CCCC1 [Example 2, bis-trifluoroacetic acid salt]    -0.90

Batch lookup, log10 of IC50 per entry.
1. COc1cccc(CCNCCC(=O)N(CCNCCc2ccc(O)c3[nH]c(=O)sc23)C2CCCCC2)c1 [Example 70, bis-trifluoroacetic acid salt]
2. O=C(CCNCCc1cc(F)cc(F)c1)N(CCNCCc1ccc(O)c2[nH]c(=O)sc12)C1CCCCC1 [Example 78, bis-trifluoroacetic acid salt]
3. CC(=O)OCC(C)(C)CN(CCNCCc1ccc(O)c2[nH]c(=O)sc12)C(=O)CCNCCc1ccc(Cl)cc1 [Example 39, acetate diacetic acid salt]
4. O=C(CCNCCc1ccccc1)N(CCNCCc1ccc(O)c2[nH]c(=O)sc12)C1Cc2ccccc2C1 [Example 41, bis-trifluoroacetic acid salt]
5. COc1ccc(CCNCCC(=O)N(CCNCCc2ccc(O)c3[nH]c(=O)sc23)C2CCCCCC2)cc1OC [Example 86, bis-trifluoroacetic acid salt]
6. O=C(CCNCCc1cccc(F)c1)N(CCNCCc1ccc(O)c2[nH]c(=O)sc12)C1CCCCCC1 [Example 36, bis-trifluoroacetic acid salt]
7. CC(C)(C)CN(CCNCCc1ccc(O)c2[nH]c(=O)sc12)C(=O)CCNCCc1ccc(Cl)c(Cl)c1 [Example 9, bis-trifluoroacetic acid salt]
8. CC(C)(CNCCC(=O)N(CCNCCc1ccc(O)c2[nH]c(=O)sc12)C1CCCCC1)c1ccccc1 [Example 21, bis-trifluoroacetic acid salt]

Output:
[-0.90, -0.60, -0.20, -1.90, -0.60, -0.80, 0.00, -0.60]
